The values you see were collected from patent US10428140B2.

Measured hEphB3-SEAP-: absorbance at 450 nm, percentage with respect to hEphA4-SEAP-His as 100% of individual entries
# Tgt: T1, human EphB3 (Homo sapiens, UniProt P54753)
# T1 construct: a protein of the extracellular region of each human Eph receptor fused with the SEAP protein and the His tag; made in house; host or cells: Expi293F cells
# T1 sequence (P54753 34-559 limits assumed): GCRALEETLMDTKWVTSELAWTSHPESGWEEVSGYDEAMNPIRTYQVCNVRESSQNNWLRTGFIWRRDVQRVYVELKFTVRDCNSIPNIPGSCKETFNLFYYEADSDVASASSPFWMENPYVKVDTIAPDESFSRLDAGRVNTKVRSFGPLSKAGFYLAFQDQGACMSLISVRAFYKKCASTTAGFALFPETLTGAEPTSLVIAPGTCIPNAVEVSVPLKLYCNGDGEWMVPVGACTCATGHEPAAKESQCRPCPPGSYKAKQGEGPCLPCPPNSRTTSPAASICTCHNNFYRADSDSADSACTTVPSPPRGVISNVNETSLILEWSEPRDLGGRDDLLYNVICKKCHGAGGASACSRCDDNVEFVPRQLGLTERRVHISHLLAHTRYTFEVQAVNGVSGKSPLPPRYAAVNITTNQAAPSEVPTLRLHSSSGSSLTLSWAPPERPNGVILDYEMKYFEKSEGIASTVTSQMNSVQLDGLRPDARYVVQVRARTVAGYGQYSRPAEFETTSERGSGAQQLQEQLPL
# Experiment: Selectivity ELISA of humanized antibodies for human Eph receptor
# Format: binding
# Recorded Conditions: coated protein 1 nM
# Source text: According to the method described in Example 7, a DNA sequence encoding the signal sequence and the extracellular region of each human Eph receptor (EphA1, EphA2, EphA3, EphA4, EphA5, EphA6, EphA7, EphA8, EphA10, EphB1, EphB2, EphB3, EphB4, and EphB6) was amplified by RT-PCR using tissue-derived total RNA and cloned into a pENTR1A vector (Invitrogen/Life Technologies) having a DNA sequence encoding SEAP protein and histidine tag. […]

>>> result("143 (antibody, V domains shown, synthetic humanized antibody heavy chain variable region sequence; synthetic humanized antibody light chain variable region sequence) VH: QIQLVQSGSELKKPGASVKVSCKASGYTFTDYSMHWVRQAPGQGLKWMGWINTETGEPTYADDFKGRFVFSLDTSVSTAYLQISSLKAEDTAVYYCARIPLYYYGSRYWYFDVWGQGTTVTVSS VL: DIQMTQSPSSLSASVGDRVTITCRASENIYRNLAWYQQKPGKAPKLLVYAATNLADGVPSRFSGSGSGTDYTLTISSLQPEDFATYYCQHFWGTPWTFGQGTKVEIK")
"5.9%"

From here, focus on the item given below.
GET /value?item= 134 (antibody, V domains shown, synthetic humanized antibody heavy chain variable region sequence; synthetic humanized antibody light chain variable region sequence) VH: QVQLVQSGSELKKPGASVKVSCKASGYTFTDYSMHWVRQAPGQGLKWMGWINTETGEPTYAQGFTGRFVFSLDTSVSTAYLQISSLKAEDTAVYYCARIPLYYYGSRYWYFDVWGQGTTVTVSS VL: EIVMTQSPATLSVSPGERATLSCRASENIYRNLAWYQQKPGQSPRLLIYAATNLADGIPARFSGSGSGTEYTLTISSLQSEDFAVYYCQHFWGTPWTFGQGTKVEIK &field=hEphB3-SEAP-: absorbance at 450 nm, percentage with respect to hEphA4-SEAP-His as 100% returns 5.2%
